# Tested on: ΔEed (Eed residues 77 to 441) (UniProt O75530 77-441)
# Sequence (O75530 77-441, stated change not applied): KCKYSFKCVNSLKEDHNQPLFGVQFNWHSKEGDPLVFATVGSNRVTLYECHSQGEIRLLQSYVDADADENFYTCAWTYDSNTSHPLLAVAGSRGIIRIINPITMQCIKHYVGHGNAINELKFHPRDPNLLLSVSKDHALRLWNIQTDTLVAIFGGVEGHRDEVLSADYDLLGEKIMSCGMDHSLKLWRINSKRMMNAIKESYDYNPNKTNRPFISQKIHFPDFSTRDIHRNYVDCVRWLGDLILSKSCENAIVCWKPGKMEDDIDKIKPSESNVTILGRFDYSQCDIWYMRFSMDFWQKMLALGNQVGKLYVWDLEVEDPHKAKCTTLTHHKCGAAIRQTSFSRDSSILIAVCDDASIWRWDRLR
# Run description: ITC
pKd: −log10 of the molar value. Ends that are not written are not given here. Me3 = trimethyl-lysine; Me2 = dimethyl-lysine
The reader will find reported pKd values listed item by item below.
Test readout: pKd

>>> observed("RLQAQRK(Me2)FAQSQY [Jarid2-K116me2 peptide]")
4.98
>>> observed("RLQAQRK(Me3)FAQSQY [Jarid2-K116me3 peptide]")
5.47
>>> observed("QLATKAARKSAPATG (trimethyl-lysine at K27) [H3K27me3 peptide]")
4.44
>>> observed("QLATKAARKSAPATG (dimethyl-Lys27 (mature numbering; K28 of precursor). Taken as the H3K27me2 peptide of the Figure 5C table; limits are mature 19-33 by convention for Eed binding peptides, not given) [H3K27me2]")
4.17
